- Test system: colorectal cancer cell lines (e.g. DLD-1, HCT 116, SW620, HCT-15, HCT-8, RKO)
- Method: Cell based assay, cell viability (CellTiter-Glo), colorectal cancer cell lines
- Protocol Conditions: Homo sapiens, SW-620, SW620, 72 hours treatment, read-out: IC50, colorectal cancer cell line SW620
Each entry below carries its reported IC50.

Solved cases (2 shown):
CC(=O)c1c([S+]([O-])Cc2ccc(C(C)(C)C)cc2)[nH]c2c(Br)ccc(Cl)c2c1=O (stereo not shown) [Compound 60]	> 2000 nM
COCSc1[nH]c2c(Br)ccc(Cl)c2c(=O)c1C(C)=O [Compound 61]	> 2000 nM

Challenge: Output measured IC50 for this item: CC(=O)c1c(S(C)(=O)=O)n(S(=O)(=O)c2ccc(C(C)(C)C)cc2)c2c(Br)ccc(Cl)c2c1=O [Compound 41]
Response given: > 2000 nM

Challenge: Output measured IC50 for this item: CC(=O)c1c([S+]([O-])Cc2cccc(C#N)c2)[nH]c2c(Br)ccc(Cl)c2c1=O (stereo not shown) [Compound 28]
Response given: 1090 nM

###

- Test system: liver cancer cell lines
- Method: Cell based assay, cell viability (CellTiter-Glo), liver cancer cell lines
- Protocol Conditions: Homo sapiens, SK-HEP1; SK-HEP-1 cell line
pIC50: −log10 of the molar value.
Recorded Metric: pIC50

CC(=O)c1c([S+]([O-])Cc2ccc(I)cc2)[nH]c2c(Cl)ccc(Cl)c2c1=O (centres unmarked)	5.82
CC(=O)c1c([S+]([O-])Cc2ccccc2)nc2c(Br)ccc(Cl)c2c1O (centres unmarked) [Compound 4]	5.95
CC(=O)c1c([S+]([O-])Cc2cc(C)on2)[nH]c2c(Br)ccc(Cl)c2c1=O (centres unmarked)	5.88
CC(=O)c1c([S+]([O-])Cc2ccc(SC(F)(F)F)cc2)[nH]c2c(Br)ccc(Cl)c2c1=O (centres unmarked)	5.99

###

- System: blood cancer cell lines (e.g. HL-60, Jurkat, Raji, Ramos, Daudi, MOLT-4)
- Method: Cell based assay, cell viability (CellTiter-Glo), blood cancer cell lines
- Protocol Conditions: Homo sapiens, blood cancer cell line Jurkat, 72 hours, read-out: IC50, Jurkat
- Description: Commercially available bladder cancer, prostate cancer, lung cancer, breast cancer, blood cancer, pancreatic cancer, colorectal cancer, brain cancer, neuroblastoma, melanoma, liver cancer, cervical carcinoma, ovarian cancer, renal cancer, and papilloma cell lines were each treated with trypsin-EDTA and cultured, followed by being seeded in each well of a 96 well plate. […]
Each entry below carries its reported IC50.

COc1ccccc1[S+]([O-])c1[nH]c2c(Br)ccc(Cl)c2c(=O)c1C(C)=O (centres unmarked)	> 2 µM
CC(=O)c1c([S+]([O-])Cc2ccc(F)c(Cl)c2)[nH]c2c(Br)ccc(Cl)c2c1=O (centres unmarked)	0.94 µM
CC(=O)c1c([S+]([O-])Cc2cc(F)cc(F)c2)[nH]c2c(Br)ccc(Cl)c2c1=O (centres unmarked)	> 2 µM

Moving on to the next molecule.
Challenge: Output measured IC50 for this item: CC(=O)c1c(Sc2ccc(Br)cc2)[nH]c2c(Br)ccc(Cl)c2c1=O
Response given: > 2 µM

###

- System: renal cancer cell lines
- Method: Cell based assay, cell viability (CellTiter-Glo), renal cancer cell lines
- Protocol Conditions: Homo sapiens; ACHN cells
Each entry below carries its reported IC50.

CC(=O)c1c([S+](C)[O-])[nH]c2c(Cl)ccc(Cl)c2c1=O (stereo not drawn)	> 2000 nM
CSc1c(C(C)=O)c(=O)c2c(Cl)ccc(Br)c2n1S(=O)(=O)c1ccc(Cl)cc1	> 2000 nM

Moving on to the next compound.
Challenge: Output measured IC50 for this item: CC(=O)c1c([S+](C)[O-])n(C(C)=O)c2c(Br)ccc(Cl)c2c1=O (stereo not drawn)
Response given: > 2000 nM

###

- Test system: breast cancer cell lines (e.g. MDA-MB-231, SK-BR-3, MDA-MB-468, HCC1954)
- Method: Cell based assay, cell viability (CellTiter-Glo), breast cancer cell lines
- Protocol Conditions: Homo sapiens; Breast cancer cell line SK-BR-3; 72 hours; CellTiter-Glo; read-out: IC50, SK-BR-3
pIC50: −log10 of the molar value.
Each entry below carries its reported pIC50.

CC(=O)c1c([S+]([O-])c2ccc(Br)cc2)[nH]c2c(Br)ccc(Cl)c2c1=O (stereo not shown) [Compound 17]	< 5.70
CC(=O)c1c(Sc2ccccc2)[nH]c2c(Br)ccc(Cl)c2c1=O [Compound 12]	< 5.70
CC(=O)c1c(SCc2cccc(F)c2)[nH]c2c(Br)ccc(Cl)c2c1=O [Compound 49]	< 5.70
CC(=O)c1c([S+]([O-])Cc2ccccc2)nc2c(Br)ccc(Cl)c2c1O (stereo not shown) [Compound 4]	6.04
CC(=O)c1c(S(C)(=O)=O)n(C(=O)c2ccc(Br)cc2)c2c(Br)ccc(Cl)c2c1=O [Compound 21]	< 5.70

Challenge: Output measured pIC50 for this item: CC(=O)c1c([S+]([O-])Cc2ccc(S(F)(F)(F)(F)F)cc2)[nH]c2c(Br)ccc(Cl)c2c1=O (stereo not shown) [Compound 68]
Response given: 5.91

Challenge: Output measured pIC50 for this item: CC(=O)c1c(S(C)(=O)=O)n(S(=O)(=O)c2ccc(C(C)(C)C)cc2)c2c(Br)ccc(Cl)c2c1=O [Compound 41]
Response given: < 5.70

Challenge: Output measured pIC50 for this item: CC(=O)c1c(SCc2ccc(F)c(Cl)c2)[nH]c2c(Br)ccc(Cl)c2c1=O [Compound 30]
Response given: < 5.70

###

- Test system: breast cancer cell lines (e.g. MDA-MB-231, SK-BR-3, MDA-MB-468, HCC1954)
- Method: Cell based assay, cell viability (CellTiter-Glo), breast cancer cell lines
- Protocol Conditions: Homo sapiens; Breast cancer cell line MCF7; 72 hours; CellTiter-Glo; read-out: IC50, MCF7
Recorded Metric: IC50

COc1cc(C[S+]([O-])c2[nH]c3c(Br)ccc(Cl)c3c(=O)c2C(C)=O)cc(OC)c1 (stereo not drawn)	> 2 µM
CC(=O)c1c([S+]([O-])Cc2cccc(C#N)c2)[nH]c2c(Br)ccc(Cl)c2c1=O (stereo not drawn)	> 2 µM

Moving on to the next compound.
Challenge: Output measured IC50 for this item: CC(=O)c1c([S+]([O-])Cc2cccc(F)c2)[nH]c2c(Br)ccc(Cl)c2c1=O (stereo not drawn)
Response given: > 2 µM

###

Each entry below carries its reported pIC50.
- Test system: bladder cancer cell lines
- Method: Cell based assay, cell viability (CellTiter-Glo), bladder cancer cell lines
- Protocol Conditions: 5637 cells; 72 hours treatment; 0 to 2 μM; CellTiter-Glo; read-out: IC50, bladder cancer cell line 5637
pIC50: −log10 of the molar value.

Solved cases (5 shown):
COc1cccc(C[S+]([O-])c2[nH]c3c(Br)ccc(Cl)c3c(=O)c2C(C)=O)c1 (stereo not shown)	< 5.70
CC(=O)c1c(SCc2cccc(I)c2)[nH]c2c(Br)ccc(Cl)c2c1=O	< 5.70
CC(=O)c1c([S+]([O-])C(C)C)[nH]c2c(Br)ccc(Cl)c2c1=O (stereo not shown)	< 5.70
Cc1cc(C[S+]([O-])c2[nH]c3c(Cl)ccc(Cl)c3c(=O)c2C(=O)C(C)C)no1 (stereo not shown)	5.87
COc1cccc2[nH]c([S+]([O-])Cc3cc(C)on3)c(C(C)=O)c(=O)c12 (stereo not shown)	< 5.70

Moving on to the next compound.
Challenge: Output measured pIC50 for this item: CC(=O)c1c(SC(C)C)[nH]c2c(Br)ccc(Cl)c2c1=O
Response given: < 5.70

###

- System: lung cancer cell lines (e.g. NCI-H23, NCI-H1229)
- Method: Cell based assay, cell viability (CellTiter-Glo), lung cancer cell lines
- Protocol Conditions: Homo sapiens; MRC-5 cells; 72 hours treatment; CellTiter-Glo; read-out: IC50
pIC50: −log10 of the molar value.
Each entry below carries its reported pIC50.

CC(=O)c1c([S+]([O-])CN2C(=O)c3ccccc3C2=O)[nH]c2c(Cl)ccc(Cl)c2c1=O (centres unmarked)	< 5.70

Challenge: State the measured pIC50 (lung cancer cell lines (e.g. NCI-H23, NCI-H1229)) of CC(=O)c1c([S+]([O-])Cc2c(F)cccc2Cl)[nH]c2c(Br)ccc(Cl)c2c1=O (centres unmarked)
Response given: < 5.70

Challenge: State the measured pIC50 (lung cancer cell lines (e.g. NCI-H23, NCI-H1229)) of CC(=O)c1c([S+]([O-])Cc2ccc(I)cc2)[nH]c2c(Cl)ccc(Cl)c2c1=O (centres unmarked)
Response given: 5.76

###

Each entry below carries its reported pIC50.
- Tested on: ovarian cancer cell lines
- Method: Cell based assay, cell viability (CellTiter-Glo), ovarian cancer cell lines
- Protocol Conditions: Homo sapiens; OVCAR-3 cells
pIC50: −log10 of the molar value.

CC(=O)c1c(S/C=C\C(=O)O)[nH]c2c(Br)ccc(Cl)c2c1=O [Compound 67]	< 5.70

Challenge: Output measured pIC50 for this item: CC(=O)c1c([S+](C)[O-])n(S(=O)(=O)c2ccc(C(C)(C)C)cc2)c2c(Br)ccc(Cl)c2c1=O (stereo not shown) [Compound 42]
Response given: < 5.70

Challenge: Output measured pIC50 for this item: CC(=O)c1c(SCc2cccc(C#N)c2)[nH]c2c(Br)ccc(Cl)c2c1=O [Compound 27]
Response given: < 5.70

Challenge: Output measured pIC50 for this item: CC(=O)c1c(Sc2ccccc2)[nH]c2c(Br)ccc(Cl)c2c1=O [Compound 12]
Response given: < 5.70

Challenge: Output measured pIC50 for this item: Cc1cc(C[S+]([O-])c2[nH]c3c(Cl)ccc(Cl)c3c(=O)c2C(=O)C2CC2)no1 (stereo not shown) [Compound 97]
Response given: 6.23

Challenge: Output measured pIC50 for this item: CC(=O)c1c([S+]([O-])Cc2cc(Cl)ccc2Cl)[nH]c2c(Br)ccc(Cl)c2c1=O (stereo not shown) [Compound 44]
Response given: 6.08

Challenge: Output measured pIC50 for this item: CC(=O)c1c([S+]([O-])Cc2ccc(I)cc2)[nH]c2c(Cl)ccc(Cl)c2c1=O (stereo not shown) [Compound 83]
Response given: 6.09

Challenge: Output measured pIC50 for this item: CC(=O)c1c([S+]([O-])C(C)c2ccccc2)[nH]c2c(Br)ccc(Cl)c2c1=O (stereo not shown) [Compound 26]
Response given: < 5.70

Challenge: Output measured pIC50 for this item: CC(=O)c1c([S+]([O-])Cc2cc(F)cc(F)c2)[nH]c2c(Br)ccc(Cl)c2c1=O (stereo not shown) [Compound 46]
Response given: 5.99

Challenge: Output measured pIC50 for this item: COc1ccccc1[S+]([O-])c1[nH]c2c(Br)ccc(Cl)c2c(=O)c1C(C)=O (stereo not shown) [Compound 15]
Response given: < 5.70

Challenge: Output measured pIC50 for this item: CC(=O)c1c([S+]([O-])Cc2ccc([S+]([O-])C(F)(F)F)cc2)[nH]c2c(Br)ccc(Cl)c2c1=O (stereo not shown) [Compound 64]
Response given: 6.05

Challenge: Output measured pIC50 for this item: CC(=O)c1c(S(C)(=O)=O)n(S(=O)(=O)c2ccc(C(C)(C)C)cc2)c2c(Br)ccc(Cl)c2c1=O [Compound 41]
Response given: < 5.70

Challenge: Output measured pIC50 for this item: CSc1c(C(C)=O)c(=O)c2c(Cl)ccc(Br)c2n1S(=O)(=O)c1ccc(Cl)cc1 [Compound 37]
Response given: < 5.70
